system: L1210 cells; assay: Reversal test: effect of thymidine and hypoxanthine on growth of L1210 cells in presence of compound; type: cell-based, murine; details: Mus musculus, read-out: IC50, standard medium
Readout Type: IC50 (nM)

1. Nc1ncnc2ncc(CNc3ccc(C(=O)N[C@@H](CCC(=O)O)C(=O)O)cc3)nc12: 82

---

tested on: L1210 cells; assay: Reversal test: effect of thymidine and hypoxanthine on growth of L1210 cells in presence of compound; assay type: cell-based, murine; details: Mus musculus, + 10 μM thymidine, read-out: IC50, + dThd
Readout Type: IC50 (nM)

1) Nc1ncnc2ncc(CNc3ccc(C(=O)N[C@@H](CCC(=O)O)C(=O)O)cc3)nc12 [Example 1, 2-desamino-aminopterin]: 160

---

test: Stability in solution (base, pH 7.4 buffer, NH4HCO3 eluates); type: physicochemical; details: pH 7.4 phosphate buffer, room temperature; read-out: t1/2 (UV changes suggestive of pyrimidine ring cleavage) (converted)
Readout Type: half-life

1) Nc1ncnc2ncc(CNc3ccc(C(=O)N[C@@H](CCC(=O)O)C(=O)O)cc3)nc12 [Example 1, 2-desamino-aminopterin]: ~72 h

---

target: dihydrofolate reductase (DHFR) (Homo sapiens, UniProt P00374); construct: endogenous in cells; host or cells: MTX-resistant WI-L2 human leukemic lymphoblasts; test: Inhibition of purified dihydrofolate reductase (DHFR) from human leukemic lymphoblasts (WI-L2 cells); type: biochemical
Sequence (P00374 whole entry): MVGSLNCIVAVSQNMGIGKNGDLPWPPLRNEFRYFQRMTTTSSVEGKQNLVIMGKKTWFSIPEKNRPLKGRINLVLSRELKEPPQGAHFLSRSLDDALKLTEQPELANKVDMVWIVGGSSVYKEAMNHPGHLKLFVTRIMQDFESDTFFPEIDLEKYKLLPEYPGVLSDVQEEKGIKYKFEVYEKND
Readout Type: IC50 (µM)

1. CN(Cc1cnc2ncnc(N)c2n1)c1ccc(C(=O)N[C@@H](CCC(=O)O)C(=O)O)cc1 [Example 3]: 5.8

---

molecular target: dihydrofolate reductase (DHFR) (Homo sapiens, UniProt P00374); construct: endogenous in cells; host or cells: MTX-resistant WI-L2 human leukemic lymphoblasts; assay: Inhibition of purified dihydrofolate reductase (DHFR) from human leukemic lymphoblasts (WI-L2 cells); assay type: biochemical; conditions: purified DHFR from MTX-resistant WI-L2 cells; read-out: DHFR IC50
Readout Type: IC50

1) Cc1nc(N)c2nc(CN(C)c3ccc(C(=O)N[C@@H](CCC(=O)O)C(=O)O)cc3)cnc2n1 [Example 4]: > 20 µM

---

test system: L1210 cells; test: Growth inhibition of cultured murine L1210 tumor cells; type: cell-based; settings: Mus musculus, L1210; read-out: Cells IC50, L1210
pIC50: −log10 of the molar value.
Readout Type: pIC50

1) CN(Cc1cnc2nc(N)nc(N)c2n1)c1ccc(C(=O)N[C@@H](CCC(=O)O)C(=O)O)cc1 [MTX, methotrexate]: 8.05

These measurements were taken from patent US4956461A.
